These measurements were taken from ChEMBL document CHEMBL1857833.

assay method text: in vitro
assay setup: mouse, liver microsomes, t (1 / 2)
Description: DNDI: half life in mouse liver microsomes at a concentration of 1uM
reported property: half-life at 1 µM (min)

compound	half-life at 1 µM / min
CCCCOc1ccc(-c2nc(CNCCC3CCCN3C)co2)cc1 (stereo unspecified)	73
O/N=C(\NC1CCCCC1)c1cccnc1Oc1c(F)cccc1F	2
CCc1ccc(Oc2ncccc2/C(=N\O)NC2CCCCC2O)cc1 (stereo unspecified)	17

P: CCCCCC(C)NCc1coc(-c2ccc(OCCCC)c(F)c2)n1 (stereo unspecified)
Q: CCc1ccccc1N/C(=N\O)c1ccc(OC)cc1
R: CCOc1ccc(-c2nc(CNC3CCCCCC3)co2)cc1
Qu. Ranking field: half-life at 1 µM; order: falling. The reply should contain the labels ordered as requested.
Ans. P, R, Q

---

assay method text: in vitro
assay setup: human, liver microsomes, CLint in vitro
Description: DNDI: in vitro intrinsic clearance in human liver microsomes at a concentration of 1uM
reported property: microsomal CLint at 1 µM (µL/min/mg)

The cases that follow already have their microsomal CLint at 1 µM on record.
smiles string	readout number
O/N=C(\CNC1CCCCC1)c1ccccc1	5
O/N=C(\Nc1ccccc1)c1ccccc1-c1ccccc1	8

A: COC/C(=N/O)c1ccc(OC)cc1
B: O/N=C(\NC1CCCCC1)c1ccc(F)cc1
C: CCCCOc1ccc(-c2nc(CNC3CCCCCC3)co2)cc1
Qu. Please order the records by their reported microsomal CLint at 1 µM, lowest number first. Present the labels in the sequence the task asks for.
Ans. A, B, C

---

Examples of molecules with documented IC50 at 72 h follow.
assay method text: DNDI: Cytotoxicity against L929 mouse fibroblasts, 72 hour.
Type: toxicity, cell-based
assay setup: mouse, L929 mouse fibroblasts
Lab book: enter the figure in µg/mL, no units written.

As a guide, the following entries are already answered.
molecule	reported property	readout units	readout number
CCCCc1ccc(-c2nc(CNCC)co2)cc1	IC50 at 72 h	µg/mL	5.42
Cc1ccc(/C(=N/O)NC2CCCCC2)c(Oc2ccc(C(C)(C)C)cc2)n1	IC50 at 72 h	µg/mL	4.06

Next item in the queue.
Qu. Please indicate IC50 at 72 h recorded for CCCCCC(C)NCc1coc(-c2ccc(OCc3ccc(Cl)c(Cl)c3)cc2)n1 (stereo not drawn)
Ans. 1.9

---

assay method text: DNDI: in vitro intrinsic clearance in mouse liver microsomes at a concentration of 10uM
Type: ADME, Microsome
assay setup: read-out: CLint in vitro
reported property: microsomal CLint at 10 µM (µL/min/mg)

molecule	microsomal CLint at 10 µM (µL/min/mg)
O/N=C(/NC1CCCCC1)c1cccnc1Oc1ccccc1F	275
COc1ccccc1/C(=N/O)NC1CCCCC1	91

a: CCCCCC(C)NCc1coc(-c2ccc(-c3ccccc3)cc2)n1 (configuration not stated)
b: CCCCCC(C)NCc1ccc(-c2ccccc2)cc1 (configuration not stated)
Qu. Which of these two has the smaller recorded microsomal CLint at 10 µM: a or b ? I would appreciate it if you answered with the label of your choice.
Ans. a

---

target or test system: MDR1 (ABCB1) (Homo sapiens, UniProt P08183)
Sequence (P08183 whole entry): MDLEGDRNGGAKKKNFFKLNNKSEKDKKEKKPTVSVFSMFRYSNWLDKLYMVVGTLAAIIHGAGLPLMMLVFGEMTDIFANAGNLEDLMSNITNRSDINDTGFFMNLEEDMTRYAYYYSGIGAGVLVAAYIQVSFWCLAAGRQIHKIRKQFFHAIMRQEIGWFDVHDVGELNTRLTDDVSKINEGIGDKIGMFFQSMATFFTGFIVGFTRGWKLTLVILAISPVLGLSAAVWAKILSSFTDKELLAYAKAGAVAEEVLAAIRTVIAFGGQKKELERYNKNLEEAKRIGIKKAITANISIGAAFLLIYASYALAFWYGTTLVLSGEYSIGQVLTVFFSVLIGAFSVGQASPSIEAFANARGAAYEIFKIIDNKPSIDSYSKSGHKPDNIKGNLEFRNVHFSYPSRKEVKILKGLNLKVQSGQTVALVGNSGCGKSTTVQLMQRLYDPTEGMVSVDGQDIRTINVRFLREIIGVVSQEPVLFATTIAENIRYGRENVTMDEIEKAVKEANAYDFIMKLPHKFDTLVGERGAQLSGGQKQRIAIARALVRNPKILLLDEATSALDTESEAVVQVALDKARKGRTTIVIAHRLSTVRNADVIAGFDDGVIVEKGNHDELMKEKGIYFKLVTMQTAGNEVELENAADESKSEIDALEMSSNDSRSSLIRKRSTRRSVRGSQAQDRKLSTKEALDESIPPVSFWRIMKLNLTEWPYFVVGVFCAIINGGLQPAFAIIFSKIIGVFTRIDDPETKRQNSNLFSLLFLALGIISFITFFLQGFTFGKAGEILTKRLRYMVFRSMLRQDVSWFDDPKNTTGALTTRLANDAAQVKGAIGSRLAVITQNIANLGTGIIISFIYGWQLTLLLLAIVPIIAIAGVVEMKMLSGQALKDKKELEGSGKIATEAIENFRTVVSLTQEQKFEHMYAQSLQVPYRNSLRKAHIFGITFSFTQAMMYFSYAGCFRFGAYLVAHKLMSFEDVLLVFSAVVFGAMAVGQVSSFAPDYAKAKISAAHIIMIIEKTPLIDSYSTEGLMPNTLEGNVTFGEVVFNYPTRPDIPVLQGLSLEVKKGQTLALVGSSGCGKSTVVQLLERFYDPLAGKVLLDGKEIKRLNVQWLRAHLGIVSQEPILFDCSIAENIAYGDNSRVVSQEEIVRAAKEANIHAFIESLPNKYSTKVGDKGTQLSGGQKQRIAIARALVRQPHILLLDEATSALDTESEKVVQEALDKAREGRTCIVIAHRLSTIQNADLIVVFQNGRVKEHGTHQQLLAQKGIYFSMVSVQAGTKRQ
assay method text: DNDI: Efflux ratio for permeability from basolateral to apical side to apical to basolateral side of MDCK cells transfected with human MDR1
Assay type: ADME, cell-based, Canis lupus familiaris
assay setup: dog, read-out: B-A/A-B
reported property: efflux ratio

// solved cases for efflux ratio follow
compound	efflux ratio
O/N=C(/NC1CCCCC1)c1cccnc1Oc1ccccc1Cl	1.2
CCCCCC(C)NCc1coc(-c2ccc(OCC)cc2)n1 (stereo not given)	1
COc1ccccc1Oc1ncccc1/C(=N\O)NC1CCCCC1	2.6

I: O/N=C(/NC1CCCCC1)c1cccnc1Oc1ccccc1
II: CCOc1ccc(-c2nc(CNC[C@@H]3CC[C@H]4C[C@@H]3C4(C)C)co2)cc1
Qu. Between these two entries, I and II , state which has the higher efflux ratio. Respond using the label that marks the chosen record.
Ans. I
(I: 1.7, II: 0.8)

---

assay method text: DNDI: Cytotoxicity against L929 mouse fibroblasts, 72 hour.
Assay type: toxicity, cell-based
assay setup: mouse, L929 mouse fibroblasts
reported property: IC50 at 72 h (µg/mL)
Quick note: give the figure in µg/mL, leave out the unit.

compound	reported property	readout number
CCCCc1ccc(-c2nc(CNC(C)CC)co2)cc1 (stereo unspecified)	IC50 at 72 h	2.75
COc1ccc(/C(=N/O)Nc2cccc(C(C)C)c2)cc1	IC50 at 72 h	5.81
Fc1ccc(-c2cc3nc(-c4ccccc4)cc(NCCCn4ccnc4)n3n2)cc1	IC50 at 72 h	7.66

Qu. Tell me measured IC50 at 72 h for CCCCCC(C)NCc1coc(-c2cccc(OCCCC)c2)n1 (stereo unspecified) please.
Ans. 1.7

Qu. // Input: Clc1ccsc1-c1nc(CNC2CCCCCC2)co1 . Output its IC50 at 72 h only.
Ans. 11.8

---

assay method text: DNDI: Cytotoxicity against L929 mouse fibroblasts, 72 hour.
Type: toxicity, cell-based
assay setup: mouse, L929 mouse fibroblasts
reported property: IC50 at 72 h (µg/mL)
Field format: number, assumed µg/mL, no unit text.

molecule	IC50 at 72 h (µg/mL)
CCCCc1ccc(-c2nc(CNC3CC3)co2)cc1	7.55
O=C(NCC1C(O)=C(C(=O)c2ccccc2)C(=O)N1C(=O)OCc1ccccc1)OCc1ccccc1 (stereo unspecified)	9.13
CCCCc1ccc(-c2nc(CNCCCNC(=O)OC(C)(C)C)co2)cc1	1.47
CCCCCC(C)NCc1coc(C2CCCCC2)n1 (stereo unspecified)	10
CCCCc1ccc(-c2nc(CNC(C)CCC)co2)cc1 (stereo unspecified)	2.03

Shifting focus to the molecule that follows.
Qu. Respond only with IC50 at 72 h recorded for Clc1ccc(-c2nc(CNC3CC4CCC3C4)co2)cc1 (stereo unspecified)
Ans. 3.47

---

assay method text: in vitro
assay setup: human, liver microsomes, t (1 / 2)
Description: DNDI: half life in human liver microsomes at a concentration of 1uM
reported property: half-life at 1 µM (min)

Examples with answers:
compound	reported property	readout number
O/N=C(\NC1CCCCC1)c1ccc(F)cc1	half-life at 1 µM	72
CCCCc1ccc(-c2nc(CNC3CC(C)CC(C)(C)C3)co2)cc1 (stereo unspecified)	half-life at 1 µM	59
CC(C)(C)CN/C(=N\O)c1ccccc1-c1ccccc1	half-life at 1 µM	67

I: O/N=C(\NC1CCCCC1)c1cc(F)cc(F)c1
II: O/N=C(\CNC1CCCCC1)c1ccccc1
Qu. Hello, I am sorting some records. Could you say if I or II has the smaller half-life at 1 µM value? Use the label to indicate which entry you chose.
Ans. I

1: COc1ccc(/C(CNC2CCCCC2)=N/O)cc1
2: O/N=C(/NC1CCCCC1)c1cccc2ccccc12
Qu. Between 1 and 2 , whose recorded half-life at 1 µM is greater? Identify your selection by its label.
Ans. 2
(2: 69 min, 1: 13 min)

---

target or test system: MDR1 (ABCB1) (Homo sapiens, UniProt P08183)
assay method text: DNDI: % of compound recovered from apical to basolateral permeability assay in MDCK cells transfected with human MDR1 after 60 mins at a concentration of 3uM in the presence of GF120918
Assay type: ADME, cell-based, Canis lupus familiaris
assay setup: dog, MDCK-MDR1, with GF120918 (concentration not stated)
reported property: recovery at 1 h, 3 µM (%)

Worked examples, 3 compounds total:
smiles string	target or test system	readout units	recovery at 1 h, 3 µM
CN(C)CCNc1cc(-c2ccccc2)nc2cc(-c3ccc(F)cc3)nn12	MDR1 (ABCB1) (Homo sapiens, UniProt P08183)	%	70
Cc1cc(NCCN(C)C)n2nc(-c3cccc(F)c3)cc2n1	MDR1 (ABCB1) (Homo sapiens, UniProt P08183)	%	108
Cc1cc(NCCCn2ccnc2)n2nc(-c3cccc(F)c3)cc2n1	MDR1 (ABCB1) (Homo sapiens, UniProt P08183)	%	109

A: Cc1cc(NCCCN2CCOCC2)n2nc(-c3cccc(F)c3)cc2n1
B: Fc1cccc(-c2cc3nc(-c4ccccc4)cc(NCCCN4CCOCC4)n3n2)c1
Qu. Lowest recovery at 1 h, 3 µM? choose A or B Indicate which entry you chose by stating its label.
Ans. B
(B: 51%, A: 85%)

P: Cc1cc(N2CCNCC2)n2nc(-c3cccc(F)c3)cc2n1
Q: CC(C)(C)c1cc(N2CCNCC2)n2nc(-c3ccc(F)cc3)cc2n1
Qu. Out of P and Q , name the one with the higher recovery at 1 h, 3 µM. Please identify the chosen entry by its label.
Ans. Q
(Q: 91%, P: 63.6%)

---

assay method text: DNDI: % of compound remaining in rat S9 microsomes at a concentration of 1uM
Assay type: ADME, subcellular, Liver, S9 fraction
reported property: remaining at 1 µM (%)

Use these answered entries as a reference point.
compound	remaining at 1 µM, %
CCCCc1ccc(-c2nc(CNCc3c(OC)cccc3OC)co2)cc1	0.169
COc1ccccc1/C(=N/O)NC1CCCCC1	0
Cc1ccc(Oc2ncccc2/C(=N/O)NC2CCCCC2)cc1	0

P: CC1CC(NCc2coc(-c3ccc(-c4ccccc4)cc3)n2)CC(C)(C)C1 (stereo not given)
Q: CCCCCC(C)NCc1coc(-c2ccc(Oc3ccccc3)cc2)n1 (stereo not given)
R: CCCCCOc1ccc(-c2nc(CNC(C)CCCCC)co2)cc1 (stereo not given)
Qu. Arrange by remaining at 1 µM, high to low. Lab note: record answer as labels in requested order.
Ans. P, R, Q
(P: 105%, R: 0.555%, Q: 0%)
